Hello, the source for this data is patent US20230242494A1, in case you need it.

- system-under-test: human cGAS (residues 161-522) (Homo sapiens, UniProt Q8N884)
- Construct: human cGAS (residues 161-522)
- Sequence (Q8N884 161-522): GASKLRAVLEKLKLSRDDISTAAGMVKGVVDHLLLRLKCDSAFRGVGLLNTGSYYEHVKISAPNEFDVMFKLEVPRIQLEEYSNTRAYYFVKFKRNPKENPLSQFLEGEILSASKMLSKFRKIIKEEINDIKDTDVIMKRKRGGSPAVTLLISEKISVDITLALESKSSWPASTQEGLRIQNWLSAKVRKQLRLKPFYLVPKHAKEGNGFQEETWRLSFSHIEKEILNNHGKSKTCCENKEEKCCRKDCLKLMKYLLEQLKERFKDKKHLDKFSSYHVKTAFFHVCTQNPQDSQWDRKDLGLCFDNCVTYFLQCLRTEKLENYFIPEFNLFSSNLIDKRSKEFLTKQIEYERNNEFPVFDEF
- procedure-text: cGAS Activity Assay—Malachite Green
- condition-set: recombinant purified human cGAS 25 nM; 80 μM ATP, 80 μM GTP, 100 nM ISD; 4 hour at RT; phosphate detection by Malachite Green
observation-type: IC50 (nM)

compound | value-units | IC50
N#C/C(C(=O)Nc1ccc(C(F)(F)F)cc1)=C(/O)c1cnoc1 [Example 142] | nM | 5190
Cc1oncc1/C(O)=C(\C#N)C(=O)Nc1cccc(C(=O)Nc2ccccc2)c1 [Example 69] | nM | 2000
Cc1oncc1/C(O)=C(\C#N)C(=O)Nc1ncc(-c2ccccc2)cn1 [Example 81] | nM | 670

I: Cc1oncc1/C(O)=C(\C#N)C(=O)Nc1ccc(S(=O)(=O)N(C)CCN(C)C)cc1 [Example 120]
II: Cc1oncc1/C(O)=C(\C#N)C(=O)Nc1cccc(CO)c1 [Example 143]
For I and II , which recorded IC50 is lower? Reply briefly: the label of your chosen item.
I
(I: 670 nM, II: 960 nM)

###

- system-under-test: human cGAS (residues 161-522) (Homo sapiens, UniProt Q8N884)
- Construct: human cGAS (residues 161-522)
- procedure-text: cGAS Activity Assay—Malachite Green
- condition-set: recombinant purified human cGAS 25 nM; 80 μM ATP, 80 μM GTP, 100 nM ISD; 4 hour at RT; phosphate detection by Malachite Green
observation-type: IC50 (nM)

The cases that follow already have their IC50 on record.
molecule | IC50 / nM
Cc1oncc1/C(O)=C(\C#N)C(=O)Nc1ccc(S(=O)(=O)c2ccccc2)cn1 | 100
Cc1oncc1/C(O)=C(\C#N)C(=O)Nc1ccc(S(C)(=O)=O)cc1Cl | 110
COCCNS(=O)(=O)c1cnc(NC(=O)/C(C#N)=C(\O)c2cnoc2C)nc1 | 40
Cc1oncc1/C(O)=C(\C#N)C(=O)Nc1ccc(Oc2ccc(Cl)cc2)c(Cl)c1 | 4370
Cc1oncc1/C(O)=C(\C#N)C(=O)Nc1cccc(C#N)c1 | 310
Cc1oncc1/C(O)=C(\C#N)C(=O)Nc1ccc(C(F)(F)F)cc1Cl | 740
Cc1oncc1/C(O)=C(\C#N)C(=O)Nc1cccc(NC(=O)c2ccccc2)c1 | 1340
Cc1oncc1/C(O)=C(\C#N)C(=O)Nc1ccc(S(=O)(=O)N2CCOCC2)cc1 | 200

I: COc1cc(NC(=O)/C(C#N)=C(\O)c2cnoc2C)ccc1C(F)(F)F
II: Cc1oncc1/C(O)=C(\C#N)C(=O)Nc1ncc(S(=O)(=O)c2ccccc2)cn1
III: Cc1oncc1/C(O)=C(\C#N)C(=O)Nc1ccc([S+](C)[O-])cc1 (centres unmarked)
IV: Cc1oncc1/C(O)=C(\C#N)C(=O)Nc1ccc(C(=O)N(C)C)cc1
Endpoint returns the given molecules ordered by ascending IC50. API: response body holds the labels in the requested order.
II, III, IV, I

A: Cc1oncc1/C(O)=C(\C#N)C(=O)Nc1ccc(S(=O)(=O)Nc2ncccn2)cc1
B: CCS(=O)(=O)c1cnc(NC(=O)/C(C#N)=C(\O)c2cnoc2C)nc1
Could you point out whether the larger IC50 belongs to A or to B ? State your choice using its label.
A
(A: 90 nM, B: 40 nM)

A: Cc1oncc1/C(O)=C(\C#N)C(=O)Nc1ccc(C(=O)NCc2ccccc2)cc1
B: Cc1oncc1/C(O)=C(\C#N)C(=O)Nc1ccc(S(=O)(=O)Nc2ccc(C#N)cc2)cc1
Form: Entry with minimum IC50 (choose one): A / B // respond with label for picked entry
B
(B: 290 nM, A: 680 nM)

###

- system-under-test: human cGAS (residues 161-522) (Homo sapiens, UniProt Q8N884)
- Construct: human cGAS (residues 161-522)
- procedure-text: cGAS Activity Assay—Malachite Green
- condition-set: recombinant purified human cGAS 25 nM; 80 μM ATP, 80 μM GTP, 100 nM ISD; 4 hour at RT; phosphate detection by Malachite Green
pIC50: −log10 of the molar value.
observation-type: pIC50

Example entries and their recorded answers appear below.
compound | pIC50
Cc1oncc1/C(O)=C(\C#N)C(=O)Nc1ncc(C(=O)N(C)Cc2ccccc2)cn1 [Example 100] | 7.15
Cc1oncc1/C(O)=C(\C#N)C(=O)Nc1ccc(S(=O)(=O)Cc2ccccc2Cl)cn1 [Example 109] | 6.14

a: Cc1oncc1/C(O)=C(\C#N)C(=O)Nc1ccc(Oc2ccc(Cl)cc2)cc1 [Example 63]
b: Cc1oncc1/C(O)=C(\C#N)C(=O)Nc1ncc(C(=O)N(C)c2ccccc2)c(-c2ccccc2)n1 [Example 135]
Between the entries labelled a and b , which has a larger pIC50 value on record? Please identify the chosen entry by its label.
b
(b: 6.24, a: 5.46)

###

- system-under-test: human cGAS (residues 161-522) (Homo sapiens)
- Construct: human cGAS (residues 161-522)
- procedure-text: cGAS Activity Assay—Malachite Green
- condition-set: recombinant purified human cGAS 25 nM; 80 μM ATP, 80 μM GTP, 100 nM ISD; 4 hour at RT; phosphate detection by Malachite Green
observation-type: IC50 (nM)

Answered cases to consult:
smiles-structure | meas-value
Cc1oncc1/C(O)=C(\C#N)C(=O)Nc1ccc(Oc2ccccc2)cc1 | 1560
CCOc1cnc(NC(=O)/C(C#N)=C(\O)c2cnoc2C)nc1 | 80
Cc1oncc1/C(O)=C(\C#N)C(=O)Nc1ccc(S(=O)(=O)c2ccccc2)cc1 | 160
Cc1oncc1/C(O)=C(\C#N)C(=O)Nc1nc(Cl)c(-c2ccccc2)c(NS(=O)(=O)c2ccc(Cl)cc2)n1 | 5010
Cc1oncc1/C(O)=C(\C#N)C(=O)Nc1ccc(Cc2ccccc2)cc1 | 1500

A: Cc1oncc1/C(O)=C(\C#N)C(=O)Nc1ccc(S(=O)(=O)c2ccc(C#N)cc2)cc1
B: Cc1oncc1/C(O)=C(\C#N)C(=O)Nc1ncc(Br)cn1
Which of these two has the smaller recorded IC50: A or B ? Your answer should be the label attached to the chosen record.
B
(B: 60 nM, A: 380 nM)

###

- system-under-test: human cGAS (residues 161-522) (Homo sapiens)
- Construct: human cGAS (residues 161-522)
- procedure-text: cGAS Activity Assay—Malachite Green
- condition-set: recombinant purified human cGAS 25 nM; 80 μM ATP, 80 μM GTP, 100 nM ISD; 4 hour at RT; phosphate detection by Malachite Green
observation-type: IC50 (nM)

smiles-structure | meas-value
COc1ccc(-c2cnc(NC(=O)/C(C#N)=C(\O)c3cnoc3C)nc2)cc1 | 610

1: Cc1noc(C)c1NS(=O)(=O)c1ccc(NC(=O)/C(C#N)=C(\O)c2cnoc2C)cc1
2: Cc1oncc1/C(O)=C(\C#N)C(=O)Nc1ncc(C(=O)N(C)c2ccccc2)c(CCc2ccccc2)n1
3: Cc1oncc1/C(O)=C(\C#N)C(=O)Nc1ccc(Sc2ccc(Cl)cc2)cc1
Returns the items ordered by IC50, from maximum to minimum. Write out the labels following the order that was asked for.
3, 2, 1
(3: 3470 nM, 2: 1710 nM, 1: 450 nM)

###

- system-under-test: human cGAS (residues 161-522) (Homo sapiens, UniProt Q8N884)
- Construct: human cGAS (residues 161-522)
- procedure-text: cGAS Activity Assay—Malachite Green
- condition-set: recombinant purified human cGAS 25 nM; 80 μM ATP, 80 μM GTP, 100 nM ISD; 4 hour at RT; phosphate detection by Malachite Green
- Procedure: Compounds were tested for cGAS inhibition in a coupled enzymatic assay based on Phosphate detection by Malachite Green. Final assay conditions were 20 mM TRIS pH 7.5 (Applichem), 5 mM MgCl2 (Sigma) and 0.01% BSA (Sigma) supplemented with 80 μM ATP (Sigma), 80 μM GTP (Sigma) and 100 nM Interferon Stimulating DNA (ISD) (Microsynth). […] Table 13 provides IC50 values (μM) for cGAS inhibition obtained for particular examples of the present invention as measured by the above-described assay.
observation-type: IC50 (nM)

A: COCCOc1cnc(NC(=O)/C(C#N)=C(\O)c2cnoc2C)nc1CCc1ccccc1
B: Cc1cc(C(F)(F)F)ccc1NC(=O)/C(C#N)=C(\O)c1cnoc1C
Lower IC50: A or B ? Mark your answer with the label of the selected entry.
A
(A: 370 nM, B: 1050 nM)

I: COCCN(C)S(=O)(=O)c1cnc(NC(=O)/C(C#N)=C(\O)c2cnoc2C)nc1
II: Cc1oncc1/C(O)=C(\C#N)C(=O)Nc1ncc(C(F)(F)F)cc1F
Please choose the item with the lower IC50 value from this pair: I and II Use the label to indicate which entry you chose.
I

a: Cc1oncc1/C(O)=C(\C#N)C(=O)Nc1ccc(S(=O)(=O)N2CCCC2)cc1
b: Cc1oncc1/C(O)=C(\C#N)C(=O)Nc1ccc(S(=O)(=O)Nc2ccccc2)cc1
Given the listed records, identify the one among a and b with higher IC50. Answer = label.
b
(b: 220 nM, a: 150 nM)

1: Cc1oncc1/C(O)=C(\C#N)C(=O)Nc1ccc(Cl)c(Cl)c1
2: Cc1oncc1C(=O)N(c1ccc(C#N)cc1)S(=O)(=O)c1ccc(NC(=O)/C(C#N)=C(\O)c2cnoc2C)cc1
// compare measured IC50, left 1 , right 2 , return larger # reply format: chosen label
1
